# method summary: oral administration of wet pulverized formulations to rats, AUC of concentration in blood
# Assay type: in vivo, Wister male rats
# assay conditions: rat, plasma, 50 mg/kg, particle size 2.5 μm, 50 mg/5 ml/kg, compound 40 w/v%, HCO-60 10 w/v%
measured parameter: AUC(0-t) at 24 h (ng·h/mL)
Quick note: give the figure in ng·h/mL, leave out the unit.

Reported AUC(0-t) at 24 h of `O=C(NC(=O)c1ccccc1[N+](=O)[O-])Nc1ccc(Oc2ncc(Br)cn2)c(Cl)c1` : 6900

====

# method summary: oral administration of wet pulverized formulations to rats, AUC of concentration in blood
# Type: in vivo, Wister male rats
# assay conditions: rat, plasma, 50 mg/kg, particle size 0.66 μm, 50 mg/5 ml/kg, compound 40 w/v%, HCO-60 10 w/v%
measured parameter: AUC(0-t) at 24 h (ng·h/mL)
Quick note: give the figure in ng·h/mL, leave out the unit.

Reported AUC(0-t) at 24 h of `O=C(NC(=O)c1ccccc1[N+](=O)[O-])Nc1ccc(Oc2ncc(Br)cn2)c(Cl)c1` : 10000
